# Tested System: Eukaryotic translation initiation factor 4H (Homo sapiens)
# Assay Info: human eIF4H binding inhibitors, primary screen, translation initiation inhibitor project, biochemical, uHTS, fluorescence polarization (AID 2012);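 note: calls also rest on retests at 20 µM and on dose response follow-up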
# Experimental Context: eIF4H fluorescence polarization binding assay; at 35 µM; stronger effect = higher value
Hit rate of the full screen: of about 290,000 compounds, about 2,700 (0.93%) were called active. Many of the other results were omitted from the sample, so actives are more common in it than they were.
Let's look at some compounds and their measured inhibition.
Numbers only here, please. The scale is %.

The cases that follow already have their inhibition on record.
# Compound, inhibition (%)
records = [
    ("O=C(NC(=S)Nc1ccc(S(=O)(=O)N2CCOCC2)cc1)c1ccccc1[N+](=O)[O-]", 6.8),
    ("O=C(Nc1nnc(S(=O)(=O)N2CCCCCC2)s1)c1cccc(Br)c1", -8.4),
    ("COc1ccc(-c2nonc2NC(=O)c2oc3ccc(F)cc3c2C)cc1OC", -3.8),
    ("COc1cc(C(=O)OCC(=O)NC(C)CCc2ccccc2)cc(OC)c1OC (stereo not given)", 5.2),
]

INPUT: // fetch inhibition given entry O=C1c2ccccc2C(=O)N1CCOc1ccc(F)cc1
OUTPUT: 0.9

INPUT: Give recorded inhibition. O=C(/C=C/c1ccco1)Nc1cccc(-c2nc3ccccc3[nH]2)c1
OUTPUT: -7.2

INPUT: Output measured inhibition for this item: COc1ccc(S(=O)(=O)N2CCOC2CNC(=O)C(=O)NCc2ccncc2)cc1C (stereo not given)
OUTPUT: -2.1

INPUT: For the compound O=S(=O)(Nc1cccc(-n2cnnn2)c1)c1cnc(Cl)c(Cl)c1 , give its reported inhibition.
OUTPUT: -5.5

INPUT: Report inhibition for CN(CCC1CCOCC1)C(=O)CC1C(=O)NCCN1Cc1cccc(F)c1 (stereo not given)
OUTPUT: -3.2

INPUT: Identify measured inhibition corresponding to O=S(=O)(c1ccc(Br)cc1)c1nc(-c2ccccc2)oc1N1CCOCC1
OUTPUT: -5.9

----------
# Tested System: Eukaryotic translation initiation factor 4H (Homo sapiens) (UniProt Q15056)
# Assay Info: human eIF4H binding inhibitors, primary screen, translation initiation inhibitor project, biochemical, uHTS, fluorescence polarization (AID 2012);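 note: calls also rest on retests at 20 µM and on dose response follow-up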
# Experimental Context: eIF4H fluorescence polarization binding assay; confirmation average; at 20 µM; stronger effect = higher value
About 2,700 (0.93%) of roughly 290,000 compounds were called active. Only a selection was taken, and actives are over-represented in it overall.
Measured Metric: inhibition (%)
Please state the figure in %; there is no need to write the unit.

# Compound, Tested System, Reported Value
records = [
    ("Cc1c(Cl)cnc(NC(=O)COC(=O)c2ccc(S(=O)(=O)NCc3ccco3)cc2)c1Cl", "Eukaryotic translation initiation factor 4H (Homo sapiens) (UniProt Q15056)", 87.4),
    ("COc1ccccc1-n1c(-c2cc(-c3ccco3)[nH]n2)n[nH]c1=S", "Eukaryotic translation initiation factor 4H (Homo sapiens) (UniProt Q15056)", 74),
    ("Cc1ccccc1NC(=O)CN1C(=O)N/C(=C\\c2cccn2-c2cccc(C(=O)O)c2)C1=O", "Eukaryotic translation initiation factor 4H (Homo sapiens) (UniProt Q15056)", 86.1),
    ("Cc1cc(C)cc(OCC(=O)NNC(=O)CCN2C(=O)c3ccccc3C2=O)c1", "Eukaryotic translation initiation factor 4H (Homo sapiens) (UniProt Q15056)", 87.4),
    ("CC(=O)c1cnc(SCC(=O)O)nc1C", "Eukaryotic translation initiation factor 4H (Homo sapiens) (UniProt Q15056)", 82.3),
]

INPUT: Supply reported inhibition belonging to this compound: O=C(COc1ccc(/C=N/NC(=O)c2ccc(O)cc2)cc1)Nc1ccc([N+](=O)[O-])cc1
OUTPUT: 85.6

INPUT: Supply recorded inhibition for Cc1cc(=O)n2[nH]c(-c3sccc3-n3c(C)ccc3C)cc2n1 here.
OUTPUT: 97.8

INPUT: Answer with the recorded inhibition of NS(=O)(=O)c1ccc(NC(=S)N2CCCC2)cc1 only.
OUTPUT: 104

INPUT: Please report the measured inhibition for CC(Sc1nc2cc(Cl)ccc2s1)C(=O)Nc1ccc2c(c1)OCO2 (stereo not given)
OUTPUT: 65.1

INPUT: Quote inhibition reported for CN1/C(=C\C=C2\N=C(c3ccc(F)cc3)OC2=O)C(C)(C)c2ccccc21 please.
OUTPUT: 97

----------
# Tested System: Eukaryotic translation initiation factor 4H (Homo sapiens) (UniProt Q15056)
# Assay Info: human eIF4H binding inhibitors, primary screen, translation initiation inhibitor project, biochemical, uHTS, fluorescence polarization (AID 2012);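 note: calls also rest on retests at 20 µM and on dose response follow-up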
# Experimental Context: eIF4H fluorescence polarization binding assay; at 35 µM; stronger effect = higher value
Out of some 290,000 compounds screened, about 2,700 (0.93%) were called active. Shown is part of a subset that was picked to be rich in actives.
Form field: inhibition (one value per entry).
Dear colleague, please return just the value in %, with no unit written.

# Smiles Str, Units Label, inhibition
data = [
    ("CCOc1ccc(N(CC(=O)NCCOc2ccccc2OC)S(=O)(=O)c2ccccc2)cc1", "%", -3.8),
    ("CC(/C=N/NC(=O)c1ccncc1)=C\\c1ccco1", "%", 25.2),
    ("COc1ccc(S(=O)(=O)Nc2ccc(F)cc2)c(C)c1C", "%", 7.4),
    ("O=C(c1ccc[nH]c1=S)N1CCN(S(=O)(=O)c2ccc(Br)cc2Cl)CC1", "%", -10.2),
    ("COC(=O)c1sccc1NC(=O)c1ccc(Cl)cc1", "%", -1.7),
    ("Cc1ccc(C)c(S(=O)(=O)N2CCN(C(=O)Nc3ccccc3)CC2)c1", "%", 4.3),
]

INPUT: Output inhibition of O=C(COc1ccc(Cl)cc1)Nc1ccccc1CO
OUTPUT: -15.9

INPUT: Tell us which inhibition value is on record for Cc1ccccc1C(=O)NC(=S)NC1CC1
OUTPUT: -17.7

INPUT: Report inhibition, nothing else, for this compound: CC(/C=N/NC(=O)c1cc(-c2ccc3ccccc3c2)n[nH]1)=C\c1ccco1
OUTPUT: 66.1

INPUT: Return the recorded inhibition value; entry: COc1ccc(NC(=O)C2=CC(c3ccc(OC)c(OC)c3)=NS(=O)(=O)N2C)cc1
OUTPUT: 1.5

INPUT: Read the entry Cc1nc(NC(=O)c2ccc3c(c2)OCCO3)ccc1Br and write its reported inhibition.
OUTPUT: -4.6

----------
# Tested System: Eukaryotic translation initiation factor 4H (Homo sapiens) (UniProt Q15056)
# Assay Info: human eIF4H binding inhibitors, primary screen, translation initiation inhibitor project, biochemical, uHTS, fluorescence polarization (AID 2012);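 note: calls also rest on retests at 20 µM and on dose response follow-up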
# Experimental Context: eIF4H fluorescence polarization binding assay; at 35 µM; stronger effect = higher value
The campaign covered roughly 290,000 compounds. About 2,700 (0.93%) were called active. What follows is part of a selection rich in actives, with near analogues and random picks from the rest.
This section presents molecules with their documented inhibition values.
Report as a plain number; the unit % is understood.

Recorded inhibition, per entry:
# Molecule, inhibition (%)
records = [
    ("Cc1ccccc1C(=O)N1CCC(C(=O)Oc2ccc(C#N)cc2)CC1", -15.9),
    ("O=C(NNS(=O)(=O)c1ccc(F)cc1)c1ccc([N+](=O)[O-])cc1Cl", -5.4),
    ("O=C(CCC(=O)n1ncc2ccccc21)NCc1ccccc1Cl", -5.2),
    ("COc1ccccc1CNC(=O)COc1ccc(C)nc1[N+](=O)[O-]", -3.5),
    ("COc1ccc(S(=O)(=O)N2CCOC2CNC(=O)C(=O)NCc2ccc(F)cc2)cc1 (stereo not given)", -9.2),
]

INPUT: State its inhibition for this molecule: COCC(C)n1c(C)cc(C(=O)COc2ccc(C)nc2[N+](=O)[O-])c1C (stereo not given)
OUTPUT: 70.1

INPUT: Fill in reported inhibition for this entry: S=C(NCc1ccco1)Nc1ccc2c(c1)OCCO2
OUTPUT: -2.7

----------
# Tested System: Eukaryotic translation initiation factor 4H (Homo sapiens)
# Assay Info: human eIF4H binding inhibitors, primary screen, translation initiation inhibitor project, biochemical, uHTS, fluorescence polarization (AID 2012);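 note: calls also rest on retests at 20 µM and on dose response follow-up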
# Experimental Context: eIF4H fluorescence polarization binding assay; at 35 µM; stronger effect = higher value
The whole screen tested about 290,000 compounds, of which about 2,700 (0.93%) were called active. Only a selection was taken, and actives are over-represented in it overall.
Here, each record is paired with measured inhibition data.
Respond with the bare value in %.

# Molecule, Tested System, Units Label, inhibition
data = [
    ("Cc1nc2c(c(=O)n1Cc1ccco1)c1nc3ccccc3nc1n2Cc1ccccc1", "Eukaryotic translation initiation factor 4H (Homo sapiens)", "%", 68.6),
]

INPUT: For the molecule Cc1ccc(Cn2c(C)nc3c(c2=O)c2nc4ccccc4nc2n3Cc2ccco2)cc1 , give its reported inhibition.
OUTPUT: 18

INPUT: Determine its reported inhibition: CCOc1cnc(C(=O)NNC(=O)c2ccccc2Br)o1
OUTPUT: 85.7

INPUT: Input COc1ccc(CNS(=O)(=O)c2ccc(-c3cnc(C4CC4)o3)cc2)cc1 , output reported inhibition.
OUTPUT: -9.2

INPUT: Give the value of inhibition reported for the following: CNC(=O)c1sc(Nc2ccc(OCc3ccccc3)cc2)nc1C
OUTPUT: 8

INPUT: Return the recorded inhibition value; entry: CCSc1nnc(NC(=O)c2ccc(C)cc2)s1
OUTPUT: -9.1

INPUT: Find the measured inhibition of CCc1ccc(-c2nc(SCC(=O)NC3CCCC3)n[nH]2)cc1 and report it.
OUTPUT: 45.6

INPUT: Complete the entry with inhibition for O=C(c1ccc(S(=O)(=O)N2CCOCC2)cc1)N1CCN(c2ccccc2)CC1
OUTPUT: -4.2

INPUT: Return inhibition for the following molecule: CCOC(=O)c1sc2nc(CSc3ccccc3)[nH]c(=O)c2c1C
OUTPUT: 2.6

INPUT: Determine from records and report inhibition for COc1cc2c(cc1OC)C(C)N(S(=O)(=O)c1cnc(Cl)c(Cl)c1)CC2 (stereo not drawn)
OUTPUT: 1.8

INPUT: Check the records and state inhibition for Cc1ccc(OCCCCc2c(C)n[nH]c2C)cc1
OUTPUT: -10.3

INPUT: Kindly indicate its recorded inhibition. Item: Cc1ccc(C)c(SCc2nc3sc(C(=O)O)c(C)c3c(=O)[nH]2)c1
OUTPUT: 2.9
